B1: truncated APLF^AD construct corresponding to residues 449 to 490 (APLF^AD-Δ) [Homo sapiens] / stoichiometric mixture of full-length Drosophila melanogaster -H2B and H3-H4 (octamer-mix) [Drosophila … (parent)
chain 1: GLDEDNDNVGQPNEYDLNDSFLDDEEEDYEPTDEDSDWEPGKE
chain 2: not shown
chain 3: not shown
chain 4: not shown
chain 5: not shown

variants of: B1; assay: ITC; settings: with stoichiometric mixture of full-length Drosophila melanogaster H2A-H2B and H3-H4 (octamer-mix) [Drosophila melanogaster]
Measured property: Kd (µM)
Give bare numbers, in µM.

Please give the measured Kd for this variant: chain 1 Y15A F21A Y29A W38A
1.22
